Origin of measurements: the supplement of paper PMC10307832

Tested on: ABC-1
Test: relative viability (nuclei count vs DMSO), 5 days (fraction); higher = more cells survive
Conditions: first compound 0.05 µM
outcome.measure: relative viability
Output spec: single numeric token, no unit.

Sample records with relative viability:
COc1cc2nccc(Oc3ccc(NC(=O)Nc4cc(C)on4)c(Cl)c3)c2cc1OC [Tivozanib] + COc1cccc2cc(-c3nc([C@H]4CC[C@H](C(=O)O)CC4)n4ncnc(N)c34)[nH]c12 [OSI-027] (partner 0.5 µM) ... 0.462
Nc1ccn([C@@H]2O[C@H](CO)[C@@H](O)[C@@H]2O)c(=O)n1 [Cytarabine] + N=C(N)NC(=N)NCCc1ccccc1 [Phenformin] (partner 250 µM) ... 0.265
COc1cc2nccc(Oc3ccc(NC(=O)Nc4cc(C)on4)c(Cl)c3)c2cc1OC [Tivozanib] + O=C(CCCCCCC(=O)Nc1ccccc1)NO [Vorinostat] (partner 1 µM) ... 1.3
Nc1ccn([C@@H]2O[C@H](CO)[C@@H](O)[C@@H]2O)c(=O)n1 [Cytarabine] + COc1cccc2cc(-c3nc([C@H]4CC[C@H](C(=O)O)CC4)n4ncnc(N)c34)[nH]c12 [OSI-027] (partner 0.5 µM) ... 0.463
COc1cc2nccc(Oc3ccc(NC(=O)Nc4cc(C)on4)c(Cl)c3)c2cc1OC [Tivozanib] + C[C@@H](Oc1cc(-c2cnn(C3CCNCC3)c2)cnc1N)c1c(Cl)ccc(F)c1Cl [Crizotinib] (partner 1 µM) ... 1.09

Ask | Any idea what relative viability was measured for COc1cc2nccc(Oc3ccc(NC(=O)Nc4cc(C)on4)c(Cl)c3)c2cc1OC [Tivozanib] + Cc1cc(Nc2cc(N3CCN(C)CC3)nc(Sc3ccc(NC(=O)C4CC4)cc3)n2)n[nH]1 [Tozasertib] (partner 0.1 µM) ?
Reply | 0.188

###

System: HCC-78
Assay: relative viability (nuclei count vs DMSO), 5 days (fraction); higher = more cells survive
Settings: first compound 0.1265 µM
outcome.measure: relative viability
Output spec: single numeric token, no unit.

Cc1sc2c(c1C)C(c1ccc(Cl)cc1)=N[C@@H](CC(=O)OC(C)(C)C)c1nnc(C)n1-2 [JQ1] + CC(=O)c1c(C)c2cnc(Nc3ccc(N4CCNCC4)cn3)nc2n(C2CCCC2)c1=O [Palbociclib] (partner 0.5 µM) ... 0.523

Ask | Any idea what relative viability was measured for Cc1sc2c(c1C)C(c1ccc(Cl)cc1)=N[C@@H](CC(=O)OC(C)(C)C)c1nnc(C)n1-2 [JQ1] + O=C(CCCCCCC(=O)Nc1ccccc1)NO [Vorinostat] (partner 1 µM) ?
Reply | 0.398

Ask | Any idea what relative viability was measured for Cc1sc2c(c1C)C(c1ccc(Cl)cc1)=N[C@@H](CC(=O)OC(C)(C)C)c1nnc(C)n1-2 [JQ1] + CC(C)C[C@H](NC(=O)[C@H](Cc1ccccc1)NC(=O)c1cnccn1)B(O)O [Bortezomib] (partner 0.002 µM) ?
Reply | 0.453

Ask | Any idea what relative viability was measured for Cc1sc2c(c1C)C(c1ccc(Cl)cc1)=N[C@@H](CC(=O)OC(C)(C)C)c1nnc(C)n1-2 [JQ1] + NC(=O)Nc1cc(-c2cccc(F)c2)sc1C(=O)N[C@H]1CCCNC1 [AZD7762] (partner 0.2 µM) ?
Reply | 0.574

###

System: LU99A
Experiment: relative viability (nuclei count vs DMSO), 5 days (fraction); higher = more cells survive
Settings: first compound 2.53 µM
outcome.measure: relative viability
Output spec: single numeric token, no unit.

O=c1[nH]c2ccccc2n1C1CCN(CCCC(c2ccc(F)cc2)c2ccc(F)cc2)CC1 [Pimozide] + C[C@@H](Oc1cc(-c2cnn(C3CCNCC3)c2)cnc1N)c1c(Cl)ccc(F)c1Cl [Crizotinib] (partner 1 µM) ... 0.612

Now examine the next entry.
Ask | Any idea what relative viability was measured for Cc1cnc(-c2cnc(NCCNc3ccc(C#N)cn3)nc2-c2ccc(Cl)cc2Cl)[nH]1 + CS(=O)(=O)CCNCc1ccc(-c2ccc3ncnc(Nc4ccc(OCc5cccc(F)c5)c(Cl)c4)c3c2)o1 [Lapatinib] (partner 2 µM) ?
Reply | 1.04
